Provenance of the data: patent US6653311B1

- system_name: 5-lipoxygenase (5-LO) (Oryctolagus cuniculus, UniProt G1SNX0)
- Construct: Polymorphonuclear leukocytes (PMNLs) were purified from rabbits by glycogen-intraperitoneal elicited intraperitoneal recruitment; endogenous in cells; host or cells: rabbit peritoneal polymorphonuclear leukocytes (PMNL), glycogen-elicited
- Sequence (G1SNX0 1-674): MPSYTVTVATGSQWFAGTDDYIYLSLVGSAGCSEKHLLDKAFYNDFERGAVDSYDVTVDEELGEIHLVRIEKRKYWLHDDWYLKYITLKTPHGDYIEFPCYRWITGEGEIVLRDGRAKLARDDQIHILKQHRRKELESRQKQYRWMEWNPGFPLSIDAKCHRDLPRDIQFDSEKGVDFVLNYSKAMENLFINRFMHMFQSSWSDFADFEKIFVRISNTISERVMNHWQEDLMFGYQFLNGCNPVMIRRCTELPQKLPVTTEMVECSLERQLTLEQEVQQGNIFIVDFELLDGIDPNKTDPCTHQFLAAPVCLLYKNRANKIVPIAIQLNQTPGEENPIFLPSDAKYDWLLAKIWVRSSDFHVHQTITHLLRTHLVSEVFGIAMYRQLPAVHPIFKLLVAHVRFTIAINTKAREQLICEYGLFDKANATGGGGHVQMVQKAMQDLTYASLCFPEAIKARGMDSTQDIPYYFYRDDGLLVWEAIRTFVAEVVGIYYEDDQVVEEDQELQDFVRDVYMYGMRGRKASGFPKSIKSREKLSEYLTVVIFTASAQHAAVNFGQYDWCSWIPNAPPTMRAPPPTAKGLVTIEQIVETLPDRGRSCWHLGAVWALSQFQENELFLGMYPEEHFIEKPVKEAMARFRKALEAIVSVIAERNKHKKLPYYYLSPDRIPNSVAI
- method: Radioisotopic assay of 5-LO activity (LTB4 formation from 14C-arachidonic acid) in rabbit peritoneal PMNL stimulated with A-23187
- Type: cell-based
- experimental_parameters: PMNL; read-out: IC50 (5-LO, LTB4 formation)
pIC50: −log10 of the molar value.
metric: pIC50

{"record_smiles": "CC1=CC(=O)C(Nc2ccccn2)=CC1=O", "metric": "pIC50", "recorded_measurement": 7.74}
